test: in vivo; design: species or system mice; conditions: mouse, iv, 3.4 MBq, total radioactivity, Biodistribution, Muscle
OBSERVABLE: tissue uptake at 0.5 h (%ID/g)
Entry rule: numbers only, all in %ID/g.

tissue uptake at 0.5 h recorded for this compound, CC(=O)NC(CCCCNC(=O)CN1CCN(CC(=O)O)CCN(CC(=O)O)CCN(CC(=O)O)CC1)C(=O)N1CCCC1C(=O)N(C)C(CCCNC(=N)N)C(=O)NC(CCCNC(=N)N)C(=O)N1CCCC1C(=O)NC(Cc1ccc(O)cc1)C(=O)NC(C(=O)NC(CC(C)C)C(=O)O)C(C)(C)C (stereo not shown) [^68Ga-DOTA-NT-20.3, metal not drawn] , is 0.96
